# Method description: Nuclear factor erythroid 2-related factor 2/antioxidant responsive element (Nrf2/ARE) small molecule agonists: luciferase reporter gene qHTS assay in human keratinocytes (AID 1919969); further: nearly all actives have a fitted effect of over 35% in size
# Condition set: KeratinoSens HaCaT ARE-luciferase, luminescence, 24 h; series mostly up to 92.4 µM
Records with an inconclusive call do not appear. Calls of active or inactive are those of the source. The call rests on the fitted dose curve.
Result category, one only: 1 (yes) (active), 0 (no) (inactive)

Could you please tell me the result logged for `C[Si]1(C)O[Si](C)(C)O[Si](C)(C)O1` in this assay?
0 (no)

Could you please tell me the result logged for C=CC(C)(O)CCCC(C)CCCC(C)CCCC(C)C (stereo not drawn) in this assay?
0 (no)

Could you please tell me the result logged for `CCCSS/C(CCO)=C(\C)N(C=O)Cc1cnc(C)nc1N` in this assay?
1 (yes)

Could you please tell me the result logged for `O=C(/C=C/c1ccc(O)c(O)c1)O[C@@H]1C[C@](O)(C(=O)O)C[C@@H](O)[C@H]1O` in this assay?
0 (no)

Could you please tell me the result logged for `Cn1c(=O)cc(Oc2ccc(F)cc2F)c2cnc(NCC(C)(C)O)nc21` in this assay?
0 (no)

Could you please tell me the result logged for CCCCCCC(O)CO (stereo not drawn) in this assay?
0 (no)

Could you please tell me the result logged for `CCOC(=O)/C=C/C(=O)OCC` in this assay?
0 (no)

Could you please tell me the result logged for `C=CCN1CCc2nc(N)sc2CC1` in this assay?
0 (no)

Could you please tell me the result logged for `CN(C)CCN(Cc1ccsc1)c1ccccn1` in this assay?
0 (no)

Could you please tell me the result logged for `NC(=O)c1cn(Cc2c(F)cccc2F)nn1` in this assay?
0 (no)

Could you please tell me the result logged for `CCCCOc1ccc(OCCCN2CCOCC2)cc1` in this assay?
0 (no)

Could you please tell me the result logged for `CC(C)NCCCC1(C(N)=O)c2ccccc2-c2ccccc21` in this assay?
0 (no)

Could you please tell me the result logged for `OCC(CO)(CO)COCC(CO)(CO)CO` in this assay?
0 (no)

* * *

# Method description: p53 small molecule agonists, cell-based qHTS assay with human liver microsomes (AID 1963577);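 further: p53 response element beta-lactamase reporter cells with liver microsomes plus NADPH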
# Condition set: HCT-116 p53RE-bla with human liver microsomes, ratio, 16 h; series mostly up to 66 µM
# Excerpt: National Center for Advancing Translational Sciences [NCATS] Division of Preclinical Innovation [DPI] U.S. Environmental Protection Agency [EPA] National Institutes of Environmental Health Sciences [NIEHS] National Toxicology Program [NTP] U.S. Food and Drug Administration [FDA] p53, a tumor suppressor protein, is activated following cellular insult, including DNA damage and other cellular stresses. […] The activation of the reporter gene under culture conditions can be detected by fluorescence intensity. […]
Results filed as inconclusive are left out. Calls of active or inactive are those of the source. Calls follow the shape of the full dose curve.
Parameter: activation

// solved cases for activation follow
# Molecule, activation
measured = [
    ("CCCCCCCCC1CO1 (stereo unspecified)", "inactive"),
    ("O=C1[C@H](CC[C@H](O)c2ccc(F)cc2)[C@@H](c2ccc(O)cc2)N1c1ccc(F)cc1", "inactive"),
    ("C=C(C)C1CC=C(C)C(O)C1 (stereo unspecified)", "inactive"),
    ("COc1cccc([C@H](O)C2CCN(CCc3ccc(F)cc3)CC2)c1OC", "inactive"),
    ("COc1cccc(O)c1O", "inactive"),
    ("COc1ccc(CN2CCN(C(c3ccc(F)cc3)c3ccc(F)cc3)CC2)c(OC)c1OC", "inactive"),
    ("S=c1[nH][nH]c(=S)s1", "inactive"),
    ("CN1CC(=O)N/C1=N/C(=O)Nc1cccc(Cl)c1", "inactive"),
    ("CC(C)(C)C1CCC(=O)CC1", "inactive"),
    ("CC[C@H](NC(=O)c1cc(F)ccc1NS(=O)(=O)c1cccc2cccnc12)c1ccccc1", "inactive"),
]

Entry `CCCCCCCCCCCCOC(=O)c1ccc(O)cc1` , activation reported as inactive
